This collection of values is drawn from PubChem BioAssay (NCI).

tested on: OVCAR-8 ovarian; assay: NCI-60 one-dose screen, 48 h; conditions: 10 µM unless noted
The panel holds about 83,000 compounds, 20% with a hit somewhere; the sample as a whole holds those more often. The source made the active and inactive calls. The calls were made as follows: active = growth percent below 10; inactive = the rest.
Outcome codes: active, inactive

{"compound": "NC(=NCCCOc1ccc(Cl)cc1)Nc1ccc(C(F)(F)F)cc1", "test_target": "OVCAR-8 ovarian", "cat": "inactive"}
{"compound": "CCn1c(Cc2ccccc2Nc2c(Cl)cccc2Cl)nnc1SCC(=O)NN1C(=O)/C(=C/c2cc(OC)c(O)c(OC)c2)SC1=S", "test_target": "OVCAR-8 ovarian", "cat": "inactive"}
{"compound": "Fc1ccc(CNc2cccc3[nH]c(C(F)(F)F)nc23)cc1", "test_target": "OVCAR-8 ovarian", "cat": "inactive"}
{"compound": "OCCNc1nccc(N2CCN(c3ccnc4cc(Cl)ccc34)CC2)n1", "test_target": "OVCAR-8 ovarian", "cat": "inactive"}
{"compound": "CN1CCN(Cc2ccc(NC(=O)c3cncc(C#Cc4cncn5ccnc45)c3)cc2C(F)(F)F)CC1", "test_target": "OVCAR-8 ovarian", "cat": "inactive"}
{"compound": "NC(=NCCCC1(c2ccccc2)CCCC1)Nc1ccc(Cl)cc1", "test_target": "OVCAR-8 ovarian", "cat": "inactive"}
{"compound": "COc1ccc(-c2nc3ccc(-c4nc5ccc(N6CCN(c7ccncc7)CC6)cc5[nH]4)cc3[nH]2)cc1OC", "test_target": "OVCAR-8 ovarian", "cat": "inactive"}
{"compound": "Nc1ccc(-c2cc3c(NCc4ccccc4)ncnc3s2)cc1", "test_target": "OVCAR-8 ovarian", "cat": "inactive"}
{"compound": "O=C(/C=C/c1ccccc1)c1ccc(O)c(CN2CCN(c3cc4c(cc3F)c(=O)c(C(=O)O)cn4C3CC3)CC2)c1", "test_target": "OVCAR-8 ovarian", "cat": "active"}
{"compound": "O=C1C=C(OCC=C(Cl)Cl)C(=O)c2ccccc21", "test_target": "OVCAR-8 ovarian", "cat": "inactive"}
{"compound": "Nc1n[nH]c2ccc([C@@H]3Nc4cc5c(cc4[C@H]4C6CCC(C6)[C@@H]34)C(=O)NC5)cc12 (some centres undefined)", "test_target": "OVCAR-8 ovarian", "cat": "inactive"}
{"compound": "CC1=C(O)C(=O)C(C(C#N)(C#N)C(C#N)C#N)C1 (centres undefined)", "test_target": "OVCAR-8 ovarian", "cat": "inactive"}
{"compound": "O=C1c2cc3c(cc2-c2c1c1ccc(F)cc1c(=O)n2C[C@H](O)[C@H](O)[C@H](O)CO)OCO3", "test_target": "OVCAR-8 ovarian", "cat": "active"}
{"compound": "O=c1cc(CSc2nnc(SCc3cc(=O)oc4c3ccc3ccccc34)o2)c2ccc3ccccc3c2o1", "test_target": "OVCAR-8 ovarian", "cat": "inactive"}
{"compound": "COc1ccc(/C=C\\c2cc(OC)c(OC)c(OC)c2)cc1OC(=O)c1cccc(Cn2cc(CCOC(=O)[C@H](N)Cc3cn(C)c4ccccc34)nn2)c1", "test_target": "OVCAR-8 ovarian", "cat": "inactive"}
{"compound": "COc1cccc2c1C(=O)c1c(O)c3c(c(O)c1C2=O)C[C@](O)(C(=O)CO)C[C@H]3O[C@@H]1C[C@@H](NC(=O)CCCN(C)C2(c3ccc(F)cc3)CC3CCC2C3)[C@H](O)[C@@H](C)O1 (some centres undefined)", "test_target": "OVCAR-8 ovarian", "cat": "active"}
{"compound": "Cc1nc2c3c(-c4ccccc4)c(-c4ccccc4)oc3ncn2n1", "test_target": "OVCAR-8 ovarian", "cat": "inactive"}
{"compound": "CC(C)C[C@@H](NC(=O)[C@@H](Cc1ccccc1)NC(=O)c1cnccn1)B1Oc2ccc(C[C@H](NC(=O)[C@H](Cc3ccc4c(c3)OB([C@@H](CC(C)C)NC(=O)[C@@H](Cc3ccccc3)NC(=O)c3cnccn3)O4)NC(=O)[C@@H](N)CC3CCC4OB([C@@H](CC(C)C)NC(=O)[C@@H](CC5CCCCC5)NC(=O)C5CNCCN5)OC4C3)C(=O)NCCCC[C@@H]3NC(=O)[C@@H](Cc4ccccc4)NC(=O)[C@H](CC(=O)O)NC(=O)CNC(=O)[C@H](CCCNC(=N)N)NC3=O)cc2O1 (some centres undefined)", "test_target": "OVCAR-8 ovarian", "cat": "active"}
{"compound": "CC(C)n1c(/C=C/[C@@H](O)C[C@@H](O)CC(=O)O)c(-c2ccc(F)cc2)c2ccccc21", "test_target": "OVCAR-8 ovarian", "cat": "inactive"}
{"compound": "C#Cc1cccc(NC(=O)c2ccccc2NC(=O)CCl)c1", "test_target": "OVCAR-8 ovarian", "cat": "inactive"}
{"compound": "CCOC(=O)c1cc(C(=O)c2ccc(O)c(O)c2)n2ccc(-c3ccn4c(C(=O)c5ccc(O)c(O)c5)cc(C(=O)OCC)c4c3)cc12", "test_target": "OVCAR-8 ovarian", "cat": "inactive"}
{"compound": "COc1cccc(NC(=O)c2sc3nc(C)c(C(C)=O)cc3c2N)c1", "test_target": "OVCAR-8 ovarian", "cat": "inactive"}
{"compound": "CN1CCN(CCCOc2cccc3nc(Nc4cc(Cl)cc(Cl)c4)ccc23)CC1", "test_target": "OVCAR-8 ovarian", "cat": "inactive"}
{"compound": "Cc1cc(N[C@@H]2CCC[C@H](Nc3ccnc4cc(Cl)ccc34)C2)nc(N2CCCCCC2)n1", "test_target": "OVCAR-8 ovarian", "cat": "active"}
{"compound": "NS(=O)(=O)c1ccc(CN=C2NC(=O)S/C2=C\\c2ccc(Br)cc2)cc1", "test_target": "OVCAR-8 ovarian", "cat": "inactive"}
{"compound": "CC(O)CN1CC(O)=C(c2nc3ccccc3s2)C1=N (centres undefined)", "test_target": "OVCAR-8 ovarian", "cat": "inactive"}
{"compound": "OCc1ccc(N2CCc3cccc(F)c3C2)cc1Cl", "test_target": "OVCAR-8 ovarian", "cat": "inactive"}
{"compound": "FC(F)(F)c1[nH]ncc1-c1nc2ccc3n[nH]c(C#Cc4cccnc4)c3c2c2c1CCCC2", "test_target": "OVCAR-8 ovarian", "cat": "inactive"}
{"compound": "O=C(CCCCC(=O)N/N=C\\c1ccccc1O)N/N=C\\c1ccccc1O", "test_target": "OVCAR-8 ovarian", "cat": "inactive"}
{"compound": "C=CC(=O)Nc1cccc(-c2nc(SC)nc(NCCN3CCOCC3)c2C#N)c1", "test_target": "OVCAR-8 ovarian", "cat": "inactive"}
{"compound": "O=C(COc1cccc(/C=C2\\COc3ccccc3C2=O)c1)Nc1nccs1", "test_target": "OVCAR-8 ovarian", "cat": "inactive"}
{"compound": "NC(=O)c1cc(Br)ccc1NC(=O)/C=C/c1ccccc1", "test_target": "OVCAR-8 ovarian", "cat": "inactive"}
{"compound": "COc1ccc(C(=O)c2sc3nc4c(c(-c5cccnc5)c3c2N)CCCC4)cc1OC", "test_target": "OVCAR-8 ovarian", "cat": "inactive"}
{"compound": "CSc1nc(Nc2cccc(NC(=O)CCl)c2)c(C#N)c(-c2cccc([N+](=O)[O-])c2)n1", "test_target": "OVCAR-8 ovarian", "cat": "inactive"}
